tested on: PC-3; test: MTT assay on cancer cell line PC-3; format: cell-based, human; settings: Homo sapiens, Table 8, read-out: In vitro cell inhibition, % of inhibition, PC-3
OBSERVATION_TYPE: inhibition at 10 µM

CHEMICAL_STRUCTURE	inhibition at 10 µM
c1ccc(CCNc2nccc(-c3c[nH]c4ncc(-c5cccnc5)cc34)n2)cc1	< 50%
c1cncc(-c2cnc3[nH]cc(-c4ccnc(NC5CC5)n4)c3c2)c1	> 50%
COc1ccc(-c2cnc3[nH]cc(-c4ccnc(NC5CCCCCC5)n4)c3c2)cc1	< 50%
Clc1ccc(-c2cnc3[nH]cc(-c4ccnc(NC5CC5)n4)c3c2)cc1	> 50%
c1cncc(-c2cnc3[nH]cc(-c4ccnc(NC5CCCCCC5)n4)c3c2)c1	> 50%
COc1ccc(-c2cnc3[nH]cc(-c4ccnc(NC5CC5)n4)c3c2)cc1	> 50%

Asked: Give the reported inhibition at 10 µM for this molecule. "c1ccc2c(-c3cnc4[nH]cc(-c5ccnc(NC6CC6)n5)c4c3)cccc2c1"
Given back: > 70%

Asked: Give the reported inhibition at 10 µM for this molecule. "COc1ccc(-c2cnc3[nH]cc(-c4ccnc(NCCc5ccccc5)n4)c3c2)cc1"
Given back: < 50%

----------
The entries below come with measured inhibition at 10 µM values attached.
Tested on: PC-3
Assay: MTT assay on cancer cell line PC-3
Assay type: cell-based, human
Conditions: Homo sapiens, Table 9 (for reference), read-out: In vitro cell inhibition, % of inhibition, PC-3
Procedure: Cell culture, growth conditions and treatments. […] Different molecules were dissolved in DMSO and were delivered to cell cultures in complete medium.

Solved entries (count: 2):
MOLECULE	TEST_SYSTEM	inhibition at 10 µM
Cc1ccc(-c2cnc3[nH]cc(-c4ccnc(N)n4)c3c2)cc1 [1C6]	PC-3	> 50%
Nc1nccc(-c2c[nH]c3ncc(-c4cc5ccccc5[nH]4)cc23)n1 [1C19]	PC-3	< 50%

Okay, next one:
Asked: GET inhibition at 10 µM | system: PC-3 | item: Nc1nccc(-c2c[nH]c3ncc(-c4cccc(F)c4)cc23)n1 [1C5]
Given back: < 50%

----------
biological target: CDK-2/cyclin A (Homo sapiens); experiment: CDK inhibition assay, CDK-2/cyclin A against Histone HI, 33P-ATP; format: biochemical; details: at 500 nM; read-out: inhibition against CDK2
OBSERVATION_TYPE: inhibition at 0.5 µM

Solved entries (count: 8):
COMPOUND	inhibition at 0.5 µM
c1ccc2sc(-c3cnc4[nH]cc(-c5ccnc(NC6CC6)n5)c4c3)cc2c1 [1A18]	> 70%
c1ccc2[nH]c(-c3cnc4[nH]cc(-c5ccnc(NC6CCCCCC6)n5)c4c3)cc2c1 [1A59]	> 70%
c1cncc(-c2cnc3[nH]cc(-c4ccnc(NC5CCCCCC5)n4)c3c2)c1 [1A55]	> 70%
CSc1ccc(-c2cnc3[nH]cc(-c4ccnc(NC5CCCCCC5)n4)c3c2)cc1 [1A48]	> 50%
Fc1ccc(-c2cnc3[nH]cc(-c4ccnc(NC5CCCCCC5)n4)c3c2)cc1 [1A42]	> 50%
CC(=O)c1ccc(-c2cnc3[nH]cc(-c4ccnc(NCCc5ccccc5)n4)c3c2)cc1 [1B13]	> 50%
Fc1ccc(-c2cnc3[nH]cc(-c4ccnc(NCCc5ccccc5)n4)c3c2)cc1 [1B2]	> 50%
COc1ccc(-c2cnc3[nH]cc(-c4ccnc(NC5CC5)n4)c3c2)cc1 [1A11]	> 70%

Okay, next one:
Asked: Give the reported inhibition at 0.5 µM for this compound. FC(F)(F)Oc1ccc(-c2cnc3[nH]cc(-c4ccnc(NC5CC5)n4)c3c2)cc1 [1A3]
Given back: > 70%

----------
target: CDK-2/cyclin A (Homo sapiens); assay: CDK inhibition assay, CDK-2/cyclin A against Histone HI, 33P-ATP; assay type: biochemical; conditions: at 500 nM; read-out: inhibition against CDK2
OBSERVATION_TYPE: inhibition at 0.5 µM

CHEMICAL_STRUCTURE	RESULT
FC(F)(F)c1cccc(-c2cnc3[nH]cc(-c4ccnc(NC5CCCC5)n4)c3c2)c1	> 50%
c1ccc2c(-c3cnc4[nH]cc(-c5ccnc(NC6CCCCCC6)n5)c4c3)nccc2c1	> 70%
Nc1nccc(-c2c[nH]c3ncc(-c4cccc(C(F)(F)F)c4)cc23)n1	> 70%

Asked: Give the reported inhibition at 0.5 µM for this molecule. "c1ccc2[nH]c(-c3cnc4[nH]cc(-c5ccnc(NC6CCCC6)n5)c4c3)cc2c1"
Given back: > 50%

Asked: Give the reported inhibition at 0.5 µM for this molecule. "CSc1ccccc1-c1cnc2[nH]cc(-c3ccnc(NC4CC4)n3)c2c1"
Given back: > 70%

Asked: Give the reported inhibition at 0.5 µM for this molecule. "c1ccc2sc(-c3cnc4[nH]cc(-c5ccnc(NC6CCCC6)n5)c4c3)cc2c1"
Given back: > 50%

----------
system: PC-3; assay: MTT assay on cancer cell line PC-3; type: cell-based, human; conditions: Homo sapiens, Table 8, read-out: In vitro cell inhibition, % of inhibition, PC-3
The entries below come with measured inhibition at 10 µM values attached.

CHEMICAL_STRUCTURE	OBSERVATION_TYPE	RESULT
Clc1ccc(-c2cnc3[nH]cc(-c4ccnc(NCCc5ccccc5)n4)c3c2)cc1	inhibition at 10 µM	> 70%
FC(F)(F)Oc1ccc(-c2cnc3[nH]cc(-c4ccnc(NC5CCCC5)n4)c3c2)cc1	inhibition at 10 µM	> 50%
COc1ccc(-c2cnc3[nH]cc(-c4ccnc(NC5CCCC5)n4)c3c2)cc1	inhibition at 10 µM	> 50%
Fc1ccc(-c2cnc3[nH]cc(-c4ccnc(NC5CCCCCC5)n4)c3c2)cc1	inhibition at 10 µM	> 50%

Asked: Give the reported inhibition at 10 µM for this compound. "FC(F)(F)c1ccc(-c2cnc3[nH]cc(-c4ccnc(NCCc5ccccc5)n4)c3c2)cc1"
Given back: > 70%

Asked: Give the reported inhibition at 10 µM for this compound. "Fc1ccc(-c2cnc3[nH]cc(-c4ccnc(NC5CCCC5)n4)c3c2)cc1"
Given back: > 50%

----------
target: CDK-9/Cyclin T1 (Homo sapiens); assay: CDK inhibition assay, CDK-9/Cyclin T1 against substrate peptide, 33P-ATP; format: biochemical; conditions: at 500 nM; read-out: inhibition against CDK9
The entries below come with measured inhibition at 0.5 µM values attached.

Solved entries (count: 3):
CHEMICAL_STRUCTURE	OBSERVATION_TYPE	RESULT
COc1ccc2[nH]c(-c3cnc4[nH]cc(-c5ccnc(NCCc6ccccc6)n5)c4c3)cc2c1	inhibition at 0.5 µM	> 50%
COc1ccc2[nH]c(-c3cnc4[nH]cc(-c5ccnc(NC6CC6)n5)c4c3)cc2c1	inhibition at 0.5 µM	> 50%
c1ccc(CCNc2nccc(-c3c[nH]c4ncc(-c5cc6ccccc6[nH]5)cc34)n2)cc1	inhibition at 0.5 µM	> 50%

Asked: Give the reported inhibition at 0.5 µM for this compound. "Cc1cccc(-c2cnc3[nH]cc(-c4ccnc(NCCc5ccccc5)n4)c3c2)c1"
Given back: > 70%

----------
The entries below come with measured inhibition at 0.5 µM values attached.
molecular target: CDK-2/cyclin A (Homo sapiens, UniProt P24941); test: CDK inhibition assay, CDK-2/cyclin A against Histone HI, 33P-ATP; format: biochemical; conditions: at 500 nM; Table-7; read-out: In vitro CDK2 % of inhibition

Solved entries (count: 5):
COMPOUND	OBSERVATION_TYPE	RESULT
Fc1cccc(-c2cnc3[nH]cc(-c4ccnc(NCCc5ccccc5)n4)c3c2)c1 [1B5]	inhibition at 0.5 µM	> 50%
CC(=O)c1ccc(-c2cnc3[nH]cc(-c4ccnc(NCCc5ccccc5)n4)c3c2)cc1 [1B13]	inhibition at 0.5 µM	> 50%
c1ccc2[nH]c(-c3cnc4[nH]cc(-c5ccnc(NC6CCCCCC6)n5)c4c3)cc2c1 [1A59]	inhibition at 0.5 µM	> 70%
CSc1ccccc1-c1cnc2[nH]cc(-c3ccnc(NC4CCCCCC4)n3)c2c1 [1A49]	inhibition at 0.5 µM	< 50%
Clc1ccc(-c2cnc3[nH]cc(-c4ccnc(NCCc5ccccc5)n4)c3c2)cc1 [1B12]	inhibition at 0.5 µM	> 70%

Asked: Give the reported inhibition at 0.5 µM for this compound. Fc1ccc(-c2cnc3[nH]cc(-c4ccnc(NCCc5ccccc5)n4)c3c2)cc1 [1B2]
Given back: > 50%

Asked: Give the reported inhibition at 0.5 µM for this compound. CSc1ccc(-c2cnc3[nH]cc(-c4ccnc(NCCc5ccccc5)n4)c3c2)cc1 [1B8]
Given back: > 50%

----------
The entries below come with measured inhibition at 0.5 µM values attached.
molecular target: CDK-9/Cyclin T1 (Homo sapiens, UniProt P50750); assay: CDK inhibition assay, CDK-9/Cyclin T1 against substrate peptide, 33P-ATP; format: biochemical; conditions: at 500 nM; Table-7; read-out: In vitro CDK9 % of inhibition
Sequence (P50750 whole entry): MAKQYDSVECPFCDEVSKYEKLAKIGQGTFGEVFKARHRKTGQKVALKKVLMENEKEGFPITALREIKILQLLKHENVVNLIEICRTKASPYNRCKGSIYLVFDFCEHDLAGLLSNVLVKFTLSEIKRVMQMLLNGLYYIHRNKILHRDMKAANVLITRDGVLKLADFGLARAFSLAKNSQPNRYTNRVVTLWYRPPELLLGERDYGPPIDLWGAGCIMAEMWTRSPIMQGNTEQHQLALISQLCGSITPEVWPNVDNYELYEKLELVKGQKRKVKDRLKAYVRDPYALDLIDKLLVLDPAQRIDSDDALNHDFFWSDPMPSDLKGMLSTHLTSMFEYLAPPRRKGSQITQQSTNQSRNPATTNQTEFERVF
Sequence (O60563 whole entry partner): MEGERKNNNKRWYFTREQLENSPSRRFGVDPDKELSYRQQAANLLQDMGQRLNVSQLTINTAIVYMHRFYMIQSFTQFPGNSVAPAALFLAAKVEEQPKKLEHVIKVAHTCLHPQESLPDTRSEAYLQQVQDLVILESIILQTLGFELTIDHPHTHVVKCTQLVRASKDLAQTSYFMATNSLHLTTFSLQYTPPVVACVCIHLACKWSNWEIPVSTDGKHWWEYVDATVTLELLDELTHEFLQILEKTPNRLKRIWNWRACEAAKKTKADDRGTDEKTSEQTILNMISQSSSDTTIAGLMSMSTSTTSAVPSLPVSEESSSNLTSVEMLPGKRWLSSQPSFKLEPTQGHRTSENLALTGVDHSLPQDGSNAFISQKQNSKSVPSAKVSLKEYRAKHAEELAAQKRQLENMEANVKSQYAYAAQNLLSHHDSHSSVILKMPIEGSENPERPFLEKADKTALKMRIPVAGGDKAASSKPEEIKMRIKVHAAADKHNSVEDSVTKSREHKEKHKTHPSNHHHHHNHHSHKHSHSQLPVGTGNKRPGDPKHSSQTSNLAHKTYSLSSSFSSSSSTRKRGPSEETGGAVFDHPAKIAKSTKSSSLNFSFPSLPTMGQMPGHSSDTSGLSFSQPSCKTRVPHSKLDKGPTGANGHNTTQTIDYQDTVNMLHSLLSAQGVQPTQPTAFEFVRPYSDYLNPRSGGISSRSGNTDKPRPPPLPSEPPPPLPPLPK

CHEMICAL_STRUCTURE	inhibition at 0.5 µM
CSc1ccccc1-c1cnc2[nH]cc(-c3ccnc(NC4CCCCCC4)n3)c2c1	< 50%

Asked: Give the reported inhibition at 0.5 µM for this compound. "CSc1ccc(-c2cnc3[nH]cc(-c4ccnc(NCCc5ccccc5)n4)c3c2)cc1"
Given back: > 50%

Asked: Give the reported inhibition at 0.5 µM for this compound. "Cc1ccc(-c2cnc3[nH]cc(-c4ccnc(NCCc5ccccc5)n4)c3c2)cc1"
Given back: > 70%

Asked: Give the reported inhibition at 0.5 µM for this compound. "Fc1ccc(-c2cnc3[nH]cc(-c4ccnc(NCCc5ccccc5)n4)c3c2)cc1"
Given back: > 50%
